Just for reference, ChEMBL document CHEMBL3259709 is where these values come from.

- PROTOCOL NOTES: Ratio of free drug level from brain to plasma concentration in rat at 0.05 mg/kg, iv after 5 mins
- Assay type: ADME, organism-based
- Design: dose 0.05 mg/kg, route intravenous
- ASSAY CONTEXT: read-out: BPR
PARAMETER: Kp uu at 5 min

IN: Return reported Kp uu at 5 min; argument: `CN1CCC(c2cccc3cc(S(=O)(=O)c4ccccn4)cnc23)CC1`
OUT: 0.28

----------
- PROTOCOL NOTES: Plasma concentration in rat at 0.05 mg/kg, iv after 3 mins
- Assay type: ADME, organism-based
- Design: dose 0.05 mg/kg, route intravenous
PARAMETER: concentration at 0.05 h (ng/mL)
Report the value in ng/mL with no unit label.

IN: Return reported concentration at 0.05 h; argument: `CN1CCC(c2cccc3cc(S(=O)(=O)c4ccccn4)cnc23)CC1`
OUT: 104
